Test system: OVCA429
METHOD NOTES: Resazurin-based viability assay, 48 hr treatment, OVCA429
Assay type: cell-based, human
STATED CONDITIONS: read-out: OVCA429 IC50
PROPERTY: IC50
Don't forget the unit after the number, please.

N.N.O=C([O-])C1(C(=O)[O-])CCC1.[Pt+2] :: 210 µM

Proceed to the following item.
Problem: // lookup IC50 for N.N.[Cl][Pt][Cl] [Cisplatin, cisplatin]
Result: 15 µM

Data origin: paper PMC4037345
